This collection of values is drawn from PubChem BioAssay (NCI).

# reported TGI; entries follow
- Tested on: 786-0 renal
- Experiment: NCI tumour cell line growth inhibition, 48 h
Provide only the numeric value, understood in µM.

{"columns": ["Molecule", "Assay Target", "Unit Symbol", "TGI"],
 "data": [
  ["CCOC(=O)C(CC(C)C)NC(=O)C(N)Cc1ccc(N(CCCl)CCCl)cc1 (stereo not given)", "786-0 renal", "µM", 6.81],
  ["c1ccc2c(CNCCCN3CCN(CCCNCc4cccc5ccccc45)CC3)cccc2c1", "786-0 renal", "µM", 4.18],
  ["O=C(NCCCNc1cc(-c2cn(-c3ccccc3)nc2-c2cccc(O)c2)ccn1)c1ccc(F)cc1", "786-0 renal", "µM", 3.62]
]}

Next molecule, TGI to be filled in.
According to the records, this molecule CCCC(c1cc(C(C)(C)C)c(O)cc1C)c1cc(C(C)(C)C)c(O)cc1C displays TGI of 5.41

----------
- System: OVCAR-3 ovarian
- Experiment: NCI tumour cell line growth inhibition, 48 h
Measure Name: TGI

{"columns": ["Compound", "Assay Target", "Obs Value"],
 "data": [
  ["O=c1[nH]ncc2[nH]c(-c3ccccc3)cc12", "OVCAR-3 ovarian", "> 100 µM"],
  ["Nc1n[nH]c2ccc([C@H]3[C@@H]4C5CCC(C5)[C@@H]4c4c(ccc5[nH]ncc45)N3S(=O)(=O)C3CC3)cc12 (stereo not given in full)", "OVCAR-3 ovarian", "7.16 µM"],
  ["CN1CCN(Cn2nc(-c3ccccc3)n(/N=C/c3ccc(-c4ccc(Cl)cc4Cl)o3)c2=S)CC1", "OVCAR-3 ovarian", "28.5 µM"],
  ["COc1cc2c3c(n(CCCNC(C)(C)CO)c(=O)c2cc1OC)-c1cc2c(cc1C3=O)OCO2", "OVCAR-3 ovarian", "39.8 µM"],
  ["C=CC[C@H](O)[C@@](NC(=O)OCc1ccccc1)(Sc1ccc(C)cc1)C(F)(F)F", "OVCAR-3 ovarian", "48.5 µM"]
]}

According to the records, this compound CN1CCC2(CC1)C(=O)N(NC(N)=O)C(=O)C2c1ccccc1 (stereo not given) displays TGI of > 100 µM

According to the records, this compound Cc1cc2c(=O)cc(-c3ccc(Cl)c(Cl)c3)oc2c(C(=O)O)c1C displays TGI of > 100 µM

According to the records, this compound COc1cc(S(=O)(=O)Nc2ccc(-c3csc(/N=C\c4ccccc4O)n3)cc2)ccc1Cl displays TGI of > 100 µM

According to the records, this compound C#CCOCCCC(=O)O displays TGI of > 100 µM

According to the records, this compound c1ccc(C2C3=C(c4ccccc4CC3)N3c4cc5nc6ccccc6nc5cc4NC34CCCCC24)cc1 (stereo not given) displays TGI of > 10 µM

----------
- Tested on: HS 578T breast
- Experiment: NCI tumour cell line growth inhibition, 48 h
Measure Name: TGI

Worked set:
{"columns": ["Molecule", "TGI"],
 "data": [
  ["CCCCCCCCOP(=O)(O)OP(=O)(O)OCC1OC(n2ccc(N)nc2=O)C(O)C1O (centres undefined)", "> 100 µM"],
  ["NC(=S)Nc1c(S(N)(=O)=O)cc(S(N)(=O)=O)c(Cl)c1Cl", "> 100 µM"]
]}

According to the records, this molecule CN(NC(=O)c1ccc(Cl)cc1)C1=NCCCCN1 displays TGI of > 100 µM

According to the records, this molecule Brc1ccc(N=C/C=C(\Nc2ccc(Br)cc2)C23CC4CC(CC(C4)C2)C3)cc1 displays TGI of > 67.4 µM

According to the records, this molecule Cc1cccc2c1NC(=O)[C@@H](NC(=O)[C@H](CCC(F)(F)F)[C@H](CCC(F)(F)F)C(N)=O)N=C2c1cccc(F)c1 displays TGI of 64 µM

----------
- Test system: CAKI-1 renal
- Experiment: NCI tumour cell line growth inhibition, 48 h
Measure Name: TGI

Worked set:
{"columns": ["Compound", "Assay Target", "Measure Name", "Obs Value"],
 "data": [
  ["COc1ccc2c(c1)OC(N)=C(C#N)C2c1ccc(F)c(F)c1 (stereo unspecified)", "CAKI-1 renal", "TGI", "> 100 µM"],
  ["COc1ccc2c(c1)C(=O)/C(=C/c1ccccc1)C2", "CAKI-1 renal", "TGI", "60.1 µM"],
  ["Cc1cc2c(=O)cc(-c3ccc(Cl)c(Cl)c3)oc2c(C(=O)O)c1C", "CAKI-1 renal", "TGI", "> 100 µM"],
  ["CNc1cccc(-c2cc(=O)c3cc4c(cc3[nH]2)OCO4)c1", "CAKI-1 renal", "TGI", "> 100 µM"],
  ["O=C(NC(=S)Nc1ccc(-c2nc3ccccc3[nH]2)cc1)c1ccc2ccccc2c1", "CAKI-1 renal", "TGI", "4.58 µM"]
]}

TGI for CAKI-1 renal with input COc1cc(Br)cc2c1O[C@H]1C(=O)CC3CC21CCN3C (stereo partly specified) equals > 100 µM

TGI for CAKI-1 renal with input O=C1/C(=C\c2ccc(Cl)cc2)CN(C(=O)c2ccccc2)C/C1=C\c1ccc(Cl)cc1 equals > 100 µM

TGI for CAKI-1 renal with input COc1ccc2cc(NC(=O)Nn3cnnc3)ccc2c1 equals > 100 µM

TGI for CAKI-1 renal with input N#CC(NNC(=O)Cc1ccccc1)c1ccc(O)cc1 (stereo unspecified) equals > 100 µM

TGI for CAKI-1 renal with input CCCc1c(O)c2ccccc2[nH]c1=O equals > 100 µM

TGI for CAKI-1 renal with input COc1cc(C)cc(C(=O)OCc2ccccc2)c1C1=C(Cl)C(=O)C(Cl)=CC1=O equals > 10 µM

----------
- System: HT29 colon
- Experiment: NCI tumour cell line growth inhibition, 48 h
Measure Name: TGI

{"columns": ["Compound", "Assay Target", "TGI"],
 "data": [
  ["COc1cccc(Nc2ncnn3ccc(CN4CC[C@@H](N)[C@H](O)C4)c23)c1", "HT29 colon", "> 56.6 µM"]
]}

According to the records, this compound NC(=S)Nc1c(S(N)(=O)=O)cc(S(N)(=O)=O)c(Cl)c1Cl displays TGI of > 100 µM

According to the records, this compound CN1CCC2(CC1)C(=O)N(NC(N)=O)C(=O)C2c1ccccc1 (stereo unspecified) displays TGI of > 100 µM

According to the records, this compound N#C/C(=C\c1ccc([N+](=O)[O-])cc1)n1nnc2cc(F)c(F)cc21 displays TGI of 3.64 µM

----------
- Test system: HOP-62 NSCLC
- Experiment: NCI tumour cell line growth inhibition, 48 h; in the data active = GI50 below about 0.43 µM; inactive = the rest
Bench note: report the call from active, inactive

Solved cases (3 shown):
{"columns": ["Item Smiles", "Cat"],
 "data": [
  ["O=C1/C(=C\\c2ccc(Cl)cc2)CN(C(=O)c2ccccc2)C/C1=C\\c1ccc(Cl)cc1", "inactive"],
  ["O=C(CSc1nc2ccc([N+](=O)[O-])cc2[nH]1)Nc1ccc([N+](=O)[O-])cc1", "inactive"],
  ["CCN1C2=C(SC(=S)C1=C1SC(C(=O)c3ccccc3)=C(C(=O)c3ccccc3)S1)SC(=Nc1ccccc1)C2=O", "inactive"]
]}

Ask: # outcome recorded in this test, key = CC[n+]1c(/C=C/c2ccc(N3CCCC3)cc2)cccc1/C=C/c1ccc(N2CCCC2)cc1
Result: active

----------
- System: A498 renal
- Experiment: NCI tumour cell line growth inhibition, 48 h
Measure Name: TGI (µM)
Provide only the numeric value, understood in µM.

{"columns": ["Compound", "Assay Target", "Unit Symbol", "Obs Value"],
 "data": [
  ["CC(C)c1ccc2c(c1)CCC1C(C)(CN)CCCC21C (stereo not given)", "A498 renal", "µM", 2.78],
  ["CC12OC(C(=O)C13CC3)C1C(=O)c3cccc(O)c3C(=O)C12 (stereo not given)", "A498 renal", "µM", 30.4],
  ["CC(C)[C@]12O[C@H]1[C@@H]1O[C@]13[C@]1(O[C@H]1C[C@H]1C4=C(CC[C@@]13C)C(=O)OC4)[C@@H]2OC(=O)OC(C)(C)C", "A498 renal", "µM", 0.0454]
]}

Next compound, TGI to be filled in.
According to the records, this compound Cc1cn2c(/C=N/NC3=NCCN3)c(-c3ccc(Cl)c([N+](=O)[O-])c3)nc2s1 displays TGI of 21.4

----------
- System: MDA-MB-231 breast
- Experiment: NCI tumour cell line growth inhibition, 48 h
Measure Name: TGI

{"columns": ["Compound", "Assay Target", "TGI"],
 "data": [
  ["CN1CCC2(CC1)C(=O)N(NC(N)=O)C(=O)C2c1ccccc1 (centres undefined)", "MDA-MB-231 breast", "> 100 µM"],
  ["Cc1c(/C=N/NC(=S)Nc2ccc([N+](=O)[O-])cc2)c(=O)n(-c2ccccc2)n1C", "MDA-MB-231 breast", "49.2 µM"],
  ["CO[C@@H]1[C@H](N(C)C(=O)c2ccccc2)C[C@@H]2O[C@]1(C)n1c3ccccc3c3c4c(c5c6ccccc6n2c5c31)C(=O)NC4=O", "MDA-MB-231 breast", "> 100 µM"],
  ["O=C1/C(=C\\c2ccc(Cl)cc2)CN(C(=O)c2ccccc2)C/C1=C\\c1ccc(Cl)cc1", "MDA-MB-231 breast", "6.9 µM"],
  ["Cc1cc(C)c(S(=O)(=O)N(CCCCCCN)OCCCON(CCCCCCN)S(=O)(=O)c2c(C)cc(C)cc2C)c(C)c1", "MDA-MB-231 breast", "3.21 µM"]
]}

Next compound, TGI to be filled in.
According to the records, this compound CCOC(=O)C(=O)N=Nc1c(O)[nH]c2ccccc12 displays TGI of > 100 µM
